B1: HEEH_KT_rd6_3632 (parent)
chain: DAEELIELVERALKEGREIILLGVRITSEEAGKWFIEWIRRFL

# Variants of: B1
# test.description: folding stability dG (cDNA display proteolysis); higher = more stable
# condition.description: PBS, room temperature
For each entry below, report its folding stability dG value.

Consider the following illustrative entries.
>>> observed("R25Q")
"3.41 kcal/mol"
>>> observed("T27N")
"3.99 kcal/mol"
>>> observed("V9G")
"2.81 kcal/mol"
>>> observed("E10C")
"4.65 kcal/mol"

Below is a list of variants. For each, state its recorded folding stability dG.
1. A31E
2. W34P
3. I20A
4. F42Y

Reply:
1: 4.2 kcal/mol; 2: 2.66 kcal/mol; 3: 2.94 kcal/mol; 4: 3.72 kcal/mol

Give folding stability dG for all variants that follow.
1. R17V
2. E18G
3. E37S

Reply:
1: 3.79 kcal/mol; 2: 3.58 kcal/mol; 3: 3.52 kcal/mol

Go through the list and state folding stability dG for each entry.
1. G16W
2. W34I
3. R41H
4. A31G
5. I19Q

Reply:
["4 kcal/mol", "3.6 kcal/mol", "3.64 kcal/mol", "3.71 kcal/mol", "2.91 kcal/mol"]
